Tested on: NCI-H460 lung carcinoma cell line
PROTOCOL_TEXT: Growth inhibition of tumor cell lines in vitro (MTT / cell counting)
Format: cell-based, human
REPORTED_CONDITIONS: Homo sapiens, 72 h; NCI-H460, 3 days
pIC50: −log10 of the molar value.
Measured pIC50 by item

Before answering, review these 8 worked examples.
COMPOUND	SYSTEM_TESTED	pIC50
COc1cc(NC(C)CCCNC(=O)/C=C/c2ccc(OC)c(OC)c2)c2ncccc2c1 (stereo not drawn)	NCI-H460 lung carcinoma cell line	< 4.00
COc1cc(NC(C)CCCNC(=O)/C=C/c2cc(OC)c(OC)c(OC)c2)c2ncccc2c1 (stereo not drawn)	NCI-H460 lung carcinoma cell line	< 4.00
COc1cc(NC(C)CCCNC(=O)NNC(=O)/C=C/c2ccc3c(c2)OCO3)c2ncccc2c1 (stereo not drawn)	NCI-H460 lung carcinoma cell line	4.57
COc1cc(NC(C)CCCNC(=O)/C=C/c2ccccc2)c2ncccc2c1 (stereo not drawn)	NCI-H460 lung carcinoma cell line	< 6.00
COc1ccc(/C=C/C(=O)NCCCC(C)Nc2cc(OC)cc3cccnc23)cc1 (stereo not drawn)	NCI-H460 lung carcinoma cell line	< 4.00
O=c1[nH]cc(F)c(=O)[nH]1 [5-FU, 5-fluorouracil, reference compound]	NCI-H460 lung carcinoma cell line	5.52
COc1cc(NC(C)CCCNC(=O)NNC(=O)/C=C/c2cc(OC)c(OC)c(OC)c2)c2ncccc2c1 (stereo not drawn)	NCI-H460 lung carcinoma cell line	4.20
COc1cc(NC(C)CCCNC(=O)/C=C/c2ccc(Cl)cc2)c2ncccc2c1 (stereo not drawn)	NCI-H460 lung carcinoma cell line	< 4.00

Give pIC50 for COc1cc(NC(C)CCCNC(=O)/C=C/c2ccc(C(F)(F)F)cc2)c2ncccc2c1 (stereo not drawn)
< 4.00

====

Test system: colon carcinoma HCT 116
PROTOCOL_TEXT: Growth inhibition of tumor cell lines in vitro (reference drugs)
Format: cell-based
REPORTED_CONDITIONS: Homo sapiens; colon carcinoma HCT 116 (footnote b, printed in SW 620 column)
PARAMETER: IC50 (µM)
Reply numerically in µM, unit not repeated.

COMPOUND	IC50 (µM)
COc1cc(NC(C)CCCN)c2ncccc2c1 (centres unmarked) [PQ, primaquine]	20

Consider the additional compound presented here.
Specify IC50 for O=c1[nH]cc(F)c(=O)[nH]1 [5-FU, 5-fluorouracil, reference compound] , system colon carcinoma HCT 116.
4

====

Tested on: HeLa cervical carcinoma cell line
PROTOCOL_TEXT: Growth inhibition of tumor cell lines in vitro (MTT / cell counting)
Assay type: cell-based
REPORTED_CONDITIONS: Homo sapiens
PARAMETER: IC50 (µM)
Reply numerically in µM, unit not repeated.

Before answering, review these 3 worked examples.
COMPOUND	SCALE_UNIT	IC50
COc1cc(NC(C)CCCNC(=O)/C=C/c2ccc3c(c2)OCO3)c2ncccc2c1 (centres unmarked) [3f]	µM	72
COc1cc(NC(C)CCCNC(=O)NNC(=O)/C=C/c2ccc(OC)c(OC)c2)c2ncccc2c1 (centres unmarked) [7d]	µM	92
COc1cc(NC(C)CCCNC(=O)NNC(=O)/C(C)=C/c2ccccc2)c2ncccc2c1 (centres unmarked) [7b]	µM	47

Give IC50 for COc1cc(NC(C)CCCNC(=O)NNC(=O)/C=C/c2cc(C(F)(F)F)cc(C(F)(F)F)c2)c2ncccc2c1 (centres unmarked) [7k]
30
